This listing pairs compounds with measured relative viability.
Tested on: NCI-H1651
assay-info: relative viability (nuclei count vs DMSO), 5 days (fraction); higher = more cells survive
measurement-parameters: first compound 0.5 µM
Respond using a number only.

# annotated cases, reported relative viability shown
compound="Nc1ccn([C@@H]2O[C@H](CO)[C@@H](O)[C@@H]2O)c(=O)n1 [Cytarabine] + CC(=O)c1c(C)c2cnc(Nc3ccc(N4CCNCC4)cn3)nc2n(C2CCCC2)c1=O [Palbociclib] (partner 0.5 µM)" test_system=NCI-H1651 reported_result=0.277
compound="Nc1ccn([C@@H]2O[C@H](CO)[C@@H](O)[C@@H]2O)c(=O)n1 [Cytarabine] + C[C@]1(O)C[C@@H](c2nc(-c3ccc4ccc(-c5ccccc5)nc4c3)c3c(N)nccn32)C1 [Linsitinib] (partner 1 µM)" test_system=NCI-H1651 reported_result=0.327
compound="COc1cc2nccc(Oc3ccc(NC(=O)Nc4cc(C)on4)c(Cl)c3)c2cc1OC [Tivozanib] + O=C(c1cc(Cc2n[nH]c(=O)c3ccccc23)ccc1F)N1CCN(C(=O)C2CC2)CC1 [Olaparib] (partner 8 µM)" test_system=NCI-H1651 reported_result=0.158

[ask] Return reported relative viability. Input compound: Nc1ccn([C@@H]2O[C@H](CO)[C@@H](O)[C@@H]2O)c(=O)n1 [Cytarabine] + O=C(c1cc(Cc2n[nH]c(=O)c3ccccc23)ccc1F)N1CCN(C(=O)C2CC2)CC1 [Olaparib] (partner 8 µM)
[reply] 0.168

[ask] Return reported relative viability. Input compound: Nc1ccn([C@@H]2O[C@H](CO)[C@@H](O)[C@@H]2O)c(=O)n1 [Cytarabine] + CS(=O)(=O)N1CCN(Cc2cc3nc(-c4cccc5[nH]ncc45)nc(N4CCOCC4)c3s2)CC1 [Pictilisib] (partner 1 µM)
[reply] 0.165

[ask] Return reported relative viability. Input compound: Nc1ccn([C@@H]2O[C@H](CO)[C@@H](O)[C@@H]2O)c(=O)n1 [Cytarabine] + CC1(C)CCC(c2ccc(Cl)cc2)=C(CN2CCN(c3ccc(C(=O)NS(=O)(=O)c4ccc(N[C@H](CCN5CCOCC5)CSc5ccccc5)c(S(=O)(=O)C(F)(F)F)c4)cc3)CC2)C1 [Navitoclax] (partner 0.5 µM)
[reply] 0.3

[ask] Return reported relative viability. Input compound: COc1cc2nccc(Oc3ccc(NC(=O)Nc4cc(C)on4)c(Cl)c3)c2cc1OC [Tivozanib] + CC(=O)c1c(C)c2cnc(Nc3ccc(N4CCNCC4)cn3)nc2n(C2CCCC2)c1=O [Palbociclib] (partner 0.5 µM)
[reply] 0.543

[ask] Return reported relative viability. Input compound: COc1cc2nccc(Oc3ccc(NC(=O)Nc4cc(C)on4)c(Cl)c3)c2cc1OC [Tivozanib] + CCNC(=O)c1noc(-c2cc(C(C)C)c(O)cc2O)c1-c1ccc(CN2CCOCC2)cc1 [Luminespib] (partner 0.01 µM)
[reply] 0.931

---

Test system: NCI-H441
assay-info: relative viability (nuclei count vs DMSO), 5 days (fraction); higher = more cells survive
measurement-parameters: first compound 0.4 µM
measured-parameter: relative viability

# annotated cases, reported relative viability shown
compound="Cc1sc2c(c1C)C(c1ccc(Cl)cc1)=N[C@@H](CC(=O)OC(C)(C)C)c1nnc(C)n1-2 [JQ1] + COc1cccc2cc(-c3nc([C@H]4CC[C@H](C(=O)O)CC4)n4ncnc(N)c34)[nH]c12 [OSI-027] (partner 0.5 µM)" measured_parameter="relative viability" reported_result=0.705
compound="Cc1sc2c(c1C)C(c1ccc(Cl)cc1)=N[C@@H](CC(=O)OC(C)(C)C)c1nnc(C)n1-2 [JQ1] + N=C(N)NC(=N)NCCc1ccccc1 [Phenformin] (partner 250 µM)" measured_parameter="relative viability" reported_result=0.681
compound="Cc1sc2c(c1C)C(c1ccc(Cl)cc1)=N[C@@H](CC(=O)OC(C)(C)C)c1nnc(C)n1-2 [JQ1] + Nc1ncn([C@H]2C[C@H](O)[C@@H](CO)O2)c(=O)n1 [Decitabine] (partner 2 µM)" measured_parameter="relative viability" reported_result=0.251
compound="Cc1sc2c(c1C)C(c1ccc(Cl)cc1)=N[C@@H](CC(=O)OC(C)(C)C)c1nnc(C)n1-2 [JQ1] + Cc1nc(NC(=O)N2CCC[C@H]2C(N)=O)sc1-c1ccnc(C(C)(C)C(F)(F)F)c1 [Alpelisib] (partner 2 µM)" measured_parameter="relative viability" reported_result=0.692
compound="Cc1sc2c(c1C)C(c1ccc(Cl)cc1)=N[C@@H](CC(=O)OC(C)(C)C)c1nnc(C)n1-2 [JQ1] + CS(=O)(=O)N1CCN(Cc2cc3nc(-c4cccc5[nH]ncc45)nc(N4CCOCC4)c3s2)CC1 [Pictilisib] (partner 1 µM)" measured_parameter="relative viability" reported_result=0.38

Let us move to another entry and its relative viability.
[ask] Return reported relative viability. Input compound: Cc1sc2c(c1C)C(c1ccc(Cl)cc1)=N[C@@H](CC(=O)OC(C)(C)C)c1nnc(C)n1-2 [JQ1] + O=C(CCCCCCC(=O)Nc1ccccc1)NO [Vorinostat] (partner 1 µM)
[reply] 0.886
